Item-by-item account of IC50
Tested on: LNCaP (AR positive Prostate Ca)
Assay: Cell cytotoxicity analysis (MTT), LNCaP
Assay type: cell-based
Conditions: Homo sapiens, 120 h, LNCaP, five days, MTT, read-out: Cytotoxicity LNCaP Avg.
parameter-measured: IC50

1. Cc1ccc(NN=C2c3ccc(O)cc3OCC2c2ccc(O)cc2)cc1 (stereo not drawn): 16.2 µM
2. O=[N+]([O-])c1ccc(NN=C2c3ccc(O)cc3OCC2c2ccc(O)cc2)cc1 (stereo not drawn): 50.9 µM
3. Oc1ccc(C2COc3cc(O)ccc3C2=NNc2ccccc2)cc1 (stereo not drawn): 16.2 µM

---

System: all cell lines tested
Assay: Cell cytotoxicity analysis (MTT), statements over the cell lines tested
Assay type: cell-based, human
Conditions: Homo sapiens; cell lines other than LNCaP and DU-145; read-out: Modest activity against the other cell lines tested
parameter-measured: IC50

1) Oc1ccc(C2COc3cc(O)ccc3C2=NNc2ccccc2)cc1 (stereo not shown) [Cpd. 1]: > 20 µM

---

System: LNCaP (AR positive Prostate Ca)
Test: Cell cytotoxicity analysis (MTT), LNCaP
Type: cell-based
Conditions: Homo sapiens, read-out: IC50 against LNCaP
pIC50: −log10 of the molar value.
Recorded pIC50 by entry
parameter-measured: pIC50

1) Oc1ccc(C2COc3cc(O)ccc3C2=NNc2ccccc2)cc1 (centres unmarked): 4.79
2) Cc1ccc(NN=C2c3ccc(O)cc3OCC2c2ccc(O)cc2)cc1 (centres unmarked): 4.79

---

Test system: NCI-H460 (large cell lung Ca)
Test: Cell cytotoxicity analysis (MTT), NCI-H460
Assay type: cell-based
Conditions: Homo sapiens, 120 h; NCI-H460, five days, MTT; read-out: Cytotoxicity NCI-H460 Avg.
Below, each entry is listed with its recorded IC50.
parameter-measured: IC50 (µM)

1) O=[N+]([O-])c1ccc(NN=C2c3ccc(O)cc3OCC2c2ccc(O)cc2)cc1 (centres unmarked): 32.7
2) Oc1ccc(C2COc3cc(O)ccc3C2=NNc2ccccc2)cc1 (centres unmarked): 27.6
